# pIC50 values compiled below
experimental system: AKT2 (Homo sapiens)
Sequence (P31751 whole entry): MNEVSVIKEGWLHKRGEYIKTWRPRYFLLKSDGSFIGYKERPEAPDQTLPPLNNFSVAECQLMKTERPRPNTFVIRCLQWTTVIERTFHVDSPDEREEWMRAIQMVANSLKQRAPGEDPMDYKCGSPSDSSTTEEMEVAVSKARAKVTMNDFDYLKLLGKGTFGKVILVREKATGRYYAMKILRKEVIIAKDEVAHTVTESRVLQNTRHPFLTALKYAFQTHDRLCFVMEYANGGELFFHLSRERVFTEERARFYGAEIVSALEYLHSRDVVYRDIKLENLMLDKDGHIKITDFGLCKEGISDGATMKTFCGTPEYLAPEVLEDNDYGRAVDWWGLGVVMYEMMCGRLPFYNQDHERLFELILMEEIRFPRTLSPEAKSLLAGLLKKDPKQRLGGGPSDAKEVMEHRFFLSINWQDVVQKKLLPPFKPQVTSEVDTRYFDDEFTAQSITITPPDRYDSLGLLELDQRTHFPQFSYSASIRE
assay overview: Live cell target engagement by NanoBRET competitive probe displacement, AKT2
measurement parameters: transfected HEK293 cells, 2 h at 37° C., read-out: AKT2 IC50: GeoMean IC50
pIC50: −log10 of the molar value.

Solved cases (5 shown):
- compound: "Nc1ncccc1-c1nc2ccc(-n3cccn3)nc2n1-c1ccc2c(c1)CC[C@@H]2N1CCc2cc(O)c(C=O)cc2C1=O"
  pIC50: "5.70 to 7.00"
- compound: "CN1CC(n2ccc(-c3ccc4nc(-c5cccnc5N)n(-c5ccc6c(c5)CC[C@@H]6NC(=O)c5ccc(O)c(C=O)c5)c4n3)n2)C1"
  pIC50: "5.70 to 7.00"
- compound: "Nc1ncccc1-c1nc2ccc(-c3ccccc3)nc2n1-c1ccc2c(c1)CC[C@@H]2NC(=O)c1ccc(B(O)O)c(C=O)c1"
  pIC50: "5.70 to 7.00"
- compound: "Cc1coc(-c2ccc3nc(-c4cccnc4N)n(-c4ccc5c(c4)CC[C@@H]5NC(=O)c4ccc(O)c(C=O)c4)c3n2)n1"
  pIC50: "5.70 to 7.00"
- compound: "Nc1ncccc1-c1nc2ccc(-n3cccn3)nc2n1-c1ccc2c(c1)CC[C@@H]2NC(=O)c1cccc(C=O)c1"
  pIC50: "7.00 to 8.00"

// query Please give the measured pIC50 for this compound: "Cc1cc(-n2cccn2)nc2c1nc(-c1cccnc1N)n2-c1ccc2c(c1)CC[C@@H]2NC(=O)c1cc(C=O)c(O)c(F)c1F"
// result 7.00 to 8.00

// query Fill in: pIC50 of "CN1CCN(c2ccc3nc(-c4cccnc4N)n(-c4ccc5c(c4)CC[C@@H]5NC(=O)c4ccc(O)c(C=O)c4)c3n2)CC1" is ___
// result ≤ 5.70

// query Any idea what its pIC50 is? The compound is "Nc1ncccc1-c1nc2ccc(-n3cccn3)nc2n1-c1cc(F)c2c(c1)CC[C@@H]2NC(=O)c1ccc(O)c(C=O)c1"
// result ≤ 5.70
